- assaySummary: Molar enthalpy of transition or fusion
- experimentalContext: Crystal; DSC
Listing: Molar enthalpy of transition or fusion of selected compounds
Quick reminder: number only, in kcal/mol, skip the unit.

Worked cases, answers included:
CCOc1cccc(NC(C)=O)c1 [N-(3-ethoxyphenyl)acetamide] :: 6.91
O=C(Nc1ccccc1)c1ccccc1 [N-phenylbenzamide] :: 7.46
COc1ccc(NC(C)=O)cc1 [N-(4-methoxyphenyl)ethanamide] :: 6.07
CC(=O)Nc1ccccc1 [N-phenylethanamide] :: 5.28
CCOc1ccc(NC(C)=O)cc1 [N-(4-ethoxyphenyl)ethanamide] :: 7.65

Pending compound:
INPUT: Given the entry `CC(=O)Nc1ccc(C)cc1` , report its measured Molar enthalpy of transition or fusion.
OUTPUT: 7.03
